Property: phosphorylation enrichment; scope: individual sequences
Tested System: EPHB2 (UniProt P29323)
Sequence (P29323 whole entry, looked up): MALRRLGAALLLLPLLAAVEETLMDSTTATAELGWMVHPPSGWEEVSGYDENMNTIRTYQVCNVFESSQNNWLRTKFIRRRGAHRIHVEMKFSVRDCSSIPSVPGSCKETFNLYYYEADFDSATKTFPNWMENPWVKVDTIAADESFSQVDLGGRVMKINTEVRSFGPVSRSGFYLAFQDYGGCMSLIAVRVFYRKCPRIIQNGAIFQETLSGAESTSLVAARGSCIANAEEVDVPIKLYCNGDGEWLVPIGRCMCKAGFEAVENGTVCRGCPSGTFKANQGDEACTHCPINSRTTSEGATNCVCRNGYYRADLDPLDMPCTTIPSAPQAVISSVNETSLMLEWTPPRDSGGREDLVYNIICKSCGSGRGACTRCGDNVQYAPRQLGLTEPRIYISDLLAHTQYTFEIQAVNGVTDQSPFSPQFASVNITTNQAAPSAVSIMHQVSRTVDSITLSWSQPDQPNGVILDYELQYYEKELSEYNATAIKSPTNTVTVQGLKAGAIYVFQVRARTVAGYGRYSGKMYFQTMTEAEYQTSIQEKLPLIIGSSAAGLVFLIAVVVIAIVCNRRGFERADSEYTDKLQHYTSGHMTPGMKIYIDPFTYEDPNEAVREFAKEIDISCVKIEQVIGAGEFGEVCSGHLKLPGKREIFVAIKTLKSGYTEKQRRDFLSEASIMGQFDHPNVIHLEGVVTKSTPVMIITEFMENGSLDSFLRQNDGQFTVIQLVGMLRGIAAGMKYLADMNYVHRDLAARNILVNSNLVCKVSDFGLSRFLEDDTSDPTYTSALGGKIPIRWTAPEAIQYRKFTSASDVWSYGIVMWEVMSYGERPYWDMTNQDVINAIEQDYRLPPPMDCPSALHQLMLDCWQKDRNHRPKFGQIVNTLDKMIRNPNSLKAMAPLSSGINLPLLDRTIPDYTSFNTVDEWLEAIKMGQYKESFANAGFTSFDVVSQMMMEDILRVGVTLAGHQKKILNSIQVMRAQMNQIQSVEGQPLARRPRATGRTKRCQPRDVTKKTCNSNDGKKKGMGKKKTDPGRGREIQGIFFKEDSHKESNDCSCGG
Protocol Text: phosphorylation enrichment, bacterial display (enrichment ratio); higher = better substrate or ligand; peptides without Tyr show the background;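 also: 11-residue human phosphosite peptides and single-mutation variants displayed on the E. coli surface, counted by deep sequencing, each peptide's frequency after selection divided by its frequency in the unselected input library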;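 also: frequency after pTyr selection over input frequency; kinase dosed for 20-30% of maximal phosphorylation in three min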
Property Label: phosphorylation enrichment

- FHLGKYLQEVL [KLB_Y910_Y906H_YF]: 0.514
- PGPPGYCDSSQ [COL12A1_Y3043]: 0.492
- NMSRIYSTAKV [ACE_Y151]: 0.493

---

Tested System: EPHB2 (UniProt P29323)
Protocol Text: phosphorylation enrichment, bacterial display (enrichment ratio); higher = better substrate or ligand; peptides without Tyr show the background
Property Label: phosphorylation enrichment

- GRVLGYGAFGK [FLT4_Y853]: 0.354
- LSSETYVKSFT [F5_Y2149_M2148T_YF]: 1.7
- CTTIHYNFKCN [TP53_Y234_M237K_YF]: 0.392
- SLDLSYFTTSS [EMD_Y181_P183T_YF]: 0.475
- VHFLVYHHHHH [CACNA1H_Y519_H516Y_YF]: 0.661
- DTLMEYLENPK [CYCS_Y68]: 0.682
- TDVSLYPSGGT [TENM4_Y399]: 0.512
- TVQVAYFTVMM [SPATA17_Y83_M86V_YF]: 0.758
- RLGLQYSQGLV [EIF2B4_Y214]: 0.725

Source listed as the supplement of paper PMC10065799.
